Listed here are molecules together with their documented growth.
system: UO-31 renal; test: NCI-60 one-dose screen, 48 h (100 = growth as untreated, 0 = no growth, -100 = all killed); conditions: 10 µM unless noted
This is part of a sample that, as a whole, favours compounds with a hit. Of some 83,000 tested, about 20% had one in any assay. Active and inactive are the calls of the source. How the source made its calls: active means growth percent below 10; inactive means the rest.
property_label: growth

molecule=Cc1ccc(C(=O)NCCCOc2ccc(N3C(N)=NC(N)=NC3(C)C)cc2Cl)cc1S(=O)(=O)F data_value="105% (inactive)"
molecule=CC(=O)O[C@H]1C(=O)[C@@]2(C)[C@H]([C@H](OC(=O)c3ccccc3)[C@]3(O)C[C@H](OC(=O)[C@H](OC(=O)OC[C@@H]4COC(C)(C)O4)[C@@H](NC(=O)c4ccccc4)c4ccccc4)C(C)=C1C3(C)C)[C@]1(OC(C)=O)CO[C@@H]1C[C@@H]2O data_value="34.1% (inactive)"
molecule=CC[C@H](C)[C@H](NC(=O)c1cccn1C)C(=O)N(C)[C@H](C[C@@H](OC(C)=O)c1nc(C(=O)N[C@@H](Cc2ccccc2)C[C@H](C)C(=O)OC)cs1)C(C)C data_value="38.9% (inactive)"
molecule=CC(C)[C@@H]1NC(=O)[C@]2(C)CSC(=N2)c2csc(n2)CNC(=O)C[C@@H](/C=C/CCS)OC1=O data_value="10.4% (inactive)"
molecule="CCN(CCO)C(Cc1ccccc1)c1ccccc1 (centres undefined)" data_value="94% (inactive)"
molecule="CC[C@H](C)[C@H](NC(=O)C12C3C4C1C1C2C3C41NC(C)=O)C(=O)N(C)[C@H](C[C@@H](OC(C)=O)c1nc(C(=O)N[C@@H](Cc2ccccc2)C[C@H](C)C(=O)OC)cs1)C(C)C (some centres undefined)" data_value="59.8% (inactive)"
molecule=CC(C)CCC1(CCCl)C(=O)NC(=O)NC1=O data_value="91% (inactive)"
molecule=Brc1ccc2c(c1)c(-c1nc(-c3c[nH]c4ncccc34)cs1)cn2CCN1CCCCC1 data_value="44.8% (inactive)"
molecule=COc1ccc(C(O)(C(=O)O)c2ccc(OC)cc2)cc1 data_value="87.6% (inactive)"
molecule="CN1CC(=O)N(O)C1(C)c1cccnc1 (centres undefined)" data_value="87.5% (inactive)"
molecule="CN1CC(CNC(=O)OCc2ccccc2)CC2c3cccc4c3c(cn4C)CC21 (centres undefined)" data_value="32.5% (inactive)"
molecule="O=[N+]([O-])CC(O)C(Cl)(Cl)Cl (centres undefined)" data_value="80.2% (inactive)"
molecule="N#CC1C(C#N)C2CCC1C1C2N1c1ccccc1 (centres undefined)" data_value="72.3% (inactive)"
molecule=COc1cc2c(cc1OCCCCCn1c(-c3ccco3)nc3ccccc31)N=C[C@@H]1CCCN1C2=O data_value="-23.9% (active)"
molecule="COC1OC(CO)C(O)C(O)[CH]1[Hg][O]C(C)=O (centres undefined)" data_value="101% (inactive)"
molecule="CC12CCC3C(CCC4Cc5[nH]c6ccccc6c5CC43C)C1CCC2O (centres undefined)" data_value="56.9% (inactive)"
molecule="NC(=O)c1c(Br)n(C2OC(CO)C(O)C2O)c2ncnc(N)c12 (centres undefined)" data_value="1.86% (active)"
molecule="CC(C)(C)N1CC1C#N (centres undefined)" data_value="92.1% (inactive)"
molecule=[Cl][Hg][c]1cc(Br)cc(Br)c1 data_value="102% (inactive)"
